test system: Plutella xylostella; test: Plutella xylostella greenhouse spray test on cauliflower and Bt cauliflower (cry9C); type: in vivo; conditions: 10 g active substance/ha; 2 DAA; cauliflower
For each of the molecules below, state its % mortality.
Numbers only, in %.

Examples with their reported % mortality follow.
{"columns": ["MOLECULE", "METRIC", "UNITS", "RECORDED RESULT"],
 "data": [
  ["N#Cc1nn(-c2c(Cl)cc(C(F)(F)F)cc2Cl)c(N)c1[S+]([O-])C(F)(F)F (stereo not shown)", "% mortality", "%", 20],
  ["C/C(=N\\C#N)N(C)Cc1ccc(Cl)nc1", "% mortality", "%", 0]
]}

For each of the items listed, what is its % mortality?
1. CS/C(C)=N\OC(=O)N(C)SN(C)C(=O)O/N=C(\C)SC
2. CCc1nn(C)c(C(=O)NCc2ccc(Oc3ccc(C)cc3)cc2)c1Cl

1: 0; 2: 0

---

test system: Plutella xylostella; assay: Plutella xylostella greenhouse spray test on cauliflower and Bt cauliflower (cry9C); format: in vivo; settings: 10 g active substance/ha; 2 DAA; Bt cauliflower
METRIC: % mortality (%)
Answers are plain numbers, in %.

Examples with their reported % mortality follow.
{"columns": ["COMPOUND", "UNITS", "RECORDED RESULT"],
 "data": [
  ["CCc1nn(C)c(C(=O)NCc2ccc(Oc3ccc(C)cc3)cc2)c1Cl", "%", 0],
  ["CS/C(C)=N\\OC(=O)N(C)SN(C)C(=O)O/N=C(\\C)SC", "%", 90],
  ["N#Cc1nn(-c2c(Cl)cc(C(F)(F)F)cc2Cl)c(N)c1[S+]([O-])C(F)(F)F (stereo not shown)", "%", 100]
]}

State its % mortality: C/C(=N\C#N)N(C)Cc1ccc(Cl)nc1
100

---

For each of the compounds below, state its % mortality.
tested on: Plutella xylostella; test: Plutella xylostella greenhouse spray test on cauliflower and Bt cauliflower (cry9C); type: in vivo; details: 30 g active substance/ha; 2 DAA; Bt cauliflower
Answers are plain numbers, in %.

Examples with their reported % mortality follow.
{"columns": ["COMPOUND", "TARGET SYSTEM", "RECORDED RESULT"],
 "data": [
  ["CCc1nn(C)c(C(=O)NCc2ccc(Oc3ccc(C)cc3)cc2)c1Cl", "Plutella xylostella", 60],
  ["N#Cc1nn(-c2c(Cl)cc(C(F)(F)F)cc2Cl)c(N)c1[S+]([O-])C(F)(F)F (stereo not shown)", "Plutella xylostella", 100],
  ["C/C(=N\\C#N)N(C)Cc1ccc(Cl)nc1", "Plutella xylostella", 100]
]}

// next item, % mortality requested
State its % mortality: CS/C(C)=N\OC(=O)N(C)SN(C)C(=O)O/N=C(\C)SC
100

---

For each of the molecules below, state its % mortality.
system: Plutella xylostella; assay: Plutella xylostella greenhouse spray test on cauliflower and Bt cauliflower (cry9C); format: in vivo; settings: 30 g active substance/ha; 2 DAA; cauliflower
One number for each entry, in %.

{"columns": ["MOLECULE", "METRIC", "UNITS", "RECORDED RESULT"],
 "data": [
  ["C/C(=N\\C#N)N(C)Cc1ccc(Cl)nc1 [Acetamiprid]", "% mortality", "%", 0]
]}

For each of the items listed, what is its % mortality?
1. CCc1nn(C)c(C(=O)NCc2ccc(Oc3ccc(C)cc3)cc2)c1Cl [Tolfenpyrad]
2. CS/C(C)=N\OC(=O)N(C)SN(C)C(=O)O/N=C(\C)SC [Thiodicarb]
3. N#Cc1nn(-c2c(Cl)cc(C(F)(F)F)cc2Cl)c(N)c1[S+]([O-])C(F)(F)F (stereo not shown) [Fipronil]

1: 0; 2: 0; 3: 70
